# run.description: melting temperature; fluorescence melt of hairpins on a sequencing array, two-state fit, raised by 9.35 °C to match UV melts
# test.parameters: sodium 0.088 M
In plain terms, low Tm, meaning strictly below 50 °C, gives T, and everything else gives F.

• GCGATCCCGAAAGGGCGC (((..(((....)))))) = F
• GGATTTGGAAACAAATTC (.(((((....))))).) = T
• GTGGCCGAAAGGCTCCAC ((((((....)))..))) = T
• GATCACCCCGGTGATC ((((((....)))))) = F
• GTCGTTCGAAAGAAAGAC (((.(((....))).))) = T
• GGCGGTCCGAAAGGAGCC (((..(((....)))))) = T
• GAGCACCGAAAGGTTCTC (((.(((....))).))) = T
• GCAGCCGAAAGGCACTGC ((((((....)))..))) = T

Asked: Take the sequence GATCTTGAAGAAGATC ((((((....)))))) and say whether its Tm is less than 50 °C.
Given back: T

Asked: Just wondering, is Tm of GAAAAGCGAAAGCTGTTC (((.(((....))).))) below 50 °C?
Given back: T

Asked: API: query returns whether the sequence falls strictly under 50 °C in Tm. Query: GTGTCTCGAAAGAGGCAC (((.(((....))).)))
Given back: F

Asked: Below 50 °C on Tm? Entry GACAGACGAAAGTCCGTC (((.(((....))).)))
Given back: T

Asked: API: query returns whether the sequence falls strictly under 50 °C in Tm. Query: GATCTTTCTGAAGATC ((((((....))))))
Given back: T

Asked: Say whether its Tm is strictly beneath 50 °C. Entry: GTGTGTGGAAACACACAC (((((((....)))))))
Given back: F

Asked: Determine if GTTTTGGGAAACCAAGAC ((.((((....)))).)) shows Tm strictly lower than 50 °C.
Given back: T

Asked: Just wondering, is Tm of GGACCCGAAAGGGACTCC ((((((....)))..))) below 50 °C?
Given back: F

Asked: Bench note: check whether GCTTACGAAAGTAAGC ((((((....)))))) shows Tm below 50 °C
Given back: F

Asked: Hi there! Is Tm for GATCTACATTAGATC ((((((...)))))) below 50 °C, do you know?
Given back: T

Asked: Identify whether the sequence GGGTGAGGAAACTCACCC (((((((....))))))) records Tm below 50 °C.
Given back: F

Asked: Criterion: Tm strictly below 50 °C. Is it met by GGAAGCGAAAGCTACTCC ((((((....)))..))) ?
Given back: T
